Every entry's value here was drawn from PubChem BioAssay AID1159580.

- EXPERIMENT_SUMMARY: chemical genetic growth profiling, strain panel (AID 1159580);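 also: tested at 20 µM; growth read once vehicle control cultures reached saturation at 30 °C; 1 = growth at the plate median or of vehicle wells; lower values mean less growth of the strain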
- TEST_PARAMETERS: S. cerevisiae deletion strains, growth OD, locus YNL209W, strain ssb2
Among all 5,500 compounds or so, about 2,000 (36%) were called active. Not shown: some 18% with an inconclusive outcome. Rule as the data show it: active = normalized growth mostly below about 0.91 (no sharp cut-off); inconclusive = no clear call, values can overlap the other calls; inactive = mostly above about 0.92. The list shows a part of the results.
The categories you may choose from are TRUE (active), FALSE (inactive)

Worked set:
COMPOUND: COc1cc2c(cc1OC)C(=O)C(CC1CCN(Cc3ccccc3)CC1)C2 (centres undefined)
CAT: FALSE

COMPOUND: C[N+](C)(C)CC(=O)[O-]
CAT: FALSE

COMPOUND: CCc1nc(N)nc(N)c1-c1ccc(Cl)cc1
CAT: FALSE

Returns: the outcome recorded for NCC1CCCCC1CC(=O)O (centres undefined) in this assay.
FALSE

Another compound to look at: O=C(O)c1cc(=O)c2ccc(Cl)cc2[nH]1
FALSE

Check CC(C)(CO)C(O)C(=O)NCCCO (centres undefined) too.
FALSE

For CCN(CC)C(=S)SSC(=S)N(CC)CC then?
TRUE

Also Cc1ccc2c(c1)CC[C@H]1CC(=O)CC[C@]21C , if possible.
FALSE

Query COc1cccc2c1CCC1CC(=O)CCC21C (centres undefined) next
FALSE

What would you report for O=C(O)COc1cc(Cl)c(Cl)cc1Cl ?
FALSE

Field entry: COC(=O)COc1cc(Cl)c(Cl)cc1Cl
FALSE

###

- EXPERIMENT_SUMMARY: chemical genetic growth profiling, strain panel (AID 1159580);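 also: tested at 20 µM; growth read once vehicle control cultures reached saturation at 30 °C; 1 = growth at the plate median or of vehicle wells; lower values mean less growth of the strain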
- TEST_PARAMETERS: S. cerevisiae deletion strains, growth OD, locus YKR091W, strain srl3, hits give low values
Out of some 5,500 compounds screened, about 2,000 (36%) were called active. Another 18% or so got no clear call; they are omitted. This is one part of the list.
normalized growth values for the molecules below.
Returns: the value as a bare number; no unit string appended.

MOLECULE: O=c1ccc2ccccc2o1
normalized growth: 0.983

MOLECULE: CCCCOc1ccc(CC(=O)NO)cc1
normalized growth: 0.996

MOLECULE: N=c1nc(N2CCCCC2)cc(N)n1O
normalized growth: 0.977

MOLECULE: COC(=O)C1=COC(OC2OC(CO)C(O)C(O)C2O)C2C(C)CC(=O)C12O (stereo not drawn)
normalized growth: 0.978

MOLECULE: COC(=O)[C@@H]1C(O)CC[C@H]2CN3CCc4c([nH]c5ccccc45)[C@@H]3C[C@@H]21 (stereo partly drawn)
normalized growth: 1.02

MOLECULE: COc1ccc2cc1Oc1ccc(cc1)C[C@H]1c3c(cc4c(c3Oc3cc5c(cc3OC)CCN(C)[C@@H]5C2)OCO4)CCN1C
normalized growth: 0.99

Requested field: normalized growth. Item: CNc1ccccc1C(=O)N1CCc2c([nH]c3ccccc23)C1=O
0.989

And what about the molecule O=c1ccc2cc(O)c(O)cc2o1 ?
1

###

normalized growth: recorded values
- EXPERIMENT_SUMMARY: chemical genetic growth profiling, strain panel (AID 1159580);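 also: tested at 20 µM; growth read once vehicle control cultures reached saturation at 30 °C; 1 = growth at the plate median or of vehicle wells; lower values mean less growth of the strain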
- TEST_PARAMETERS: S. cerevisiae deletion strains, growth OD, locus YJL164C, strain tpk1, hits give low values
Hit rate of the full screen: of about 5,500 compounds, about 2,000 (36%) were called active. About 18% were inconclusive and are not listed. This is one part of the list.
Response field accepts a number only; no unit should be typed.

COMPOUND: CC(=O)O[C@]1(C(C)=O)CCC2C3C[C@H](C)C4=CC(=O)CC[C@]4(C)C3CC[C@@]21C (some centres undefined)
normalized growth: 0.97

So what does the record say about normalized growth for Cc1cc(C(C)(C)CC(C)(C)C)ccc1OCCOCC[N+](C)(C)Cc1ccccc1 ?
0.057

Also, CCCCCCCCCCCCC[N+](C)(C)Cc1ccccc1 please.
0.0596

Try CC(=O)O[C@]1(C(C)=O)CCC2C3C=C(C)C4=CC(=O)CCC4(C)C3CCC21C (some centres undefined) next.
0.951

Follow-up entry: CC(=O)O[C@]1(C(C)=O)CCC2C3C=C(Cl)C4=CC(=O)CC[C@]4(C)C3CC[C@@]21C (some centres undefined)
1.01
